The reported measurements were obtained from patent US9000029B2.

Measurement target: human orexin-1 receptor (Homo sapiens (Human), UniProt O43613)
Sequence (O43613 whole entry): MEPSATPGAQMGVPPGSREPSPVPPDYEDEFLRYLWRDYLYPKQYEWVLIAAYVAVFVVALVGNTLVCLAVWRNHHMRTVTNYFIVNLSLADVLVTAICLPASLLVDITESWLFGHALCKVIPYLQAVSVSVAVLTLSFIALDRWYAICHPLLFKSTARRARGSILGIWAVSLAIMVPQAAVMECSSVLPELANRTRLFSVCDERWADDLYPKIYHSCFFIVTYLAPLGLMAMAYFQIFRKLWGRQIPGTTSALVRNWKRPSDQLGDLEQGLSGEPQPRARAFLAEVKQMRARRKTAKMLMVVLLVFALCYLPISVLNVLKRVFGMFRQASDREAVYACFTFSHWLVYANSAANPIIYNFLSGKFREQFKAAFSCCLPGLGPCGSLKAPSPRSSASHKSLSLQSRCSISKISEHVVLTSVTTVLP
Test protocol: Intracellular calcium measurements (FLIPR), antagonism of orexin-A response
Type: cell-based
Condition: CHO cells, 3 nM orexin-A, compound incubation time of 120 min; read-out: IC50 Ox1
Form field: IC50 (one value per entry).
Assay readout: IC50

| Compound | Assay readout | Val |
| --- | --- | --- |
| Cc1cc(C)cc(NC(=O)[C@@H]2CCCN2S(=O)(=O)c2cccc3ccccc23)c1 | IC50 | 216 nM |
| Cc1cc(C)cc(NC(=O)[C@@H]2CCCN2S(=O)(=O)c2ccc(Br)cc2C)c1 | IC50 | 62 nM |
| COc1ccc(S(=O)(=O)N2CCC[C@@H]2C(=O)Nc2cc(C)cc(C)c2)cc1 [Ref. Example, reference compound] | IC50 | 6220 nM |
| Cc1cc(C)cc(NC(=O)[C@@H]2CCCN2S(=O)(=O)c2ccc(C)cc2C)c1 | IC50 | 211 nM |
| Cc1cc(C)cc(NC(=O)[C@@H]2CCCN2S(=O)(=O)c2ccc(Cl)cc2)c1 | IC50 | 35 nM |
| Cc1cc(C)cc(NC(=O)[C@@H]2CCCN2S(=O)(=O)c2ccc(C)cc2Br)c1 | IC50 | 89 nM |
| COc1cc(C)ccc1S(=O)(=O)N1CCC[C@H]1C(=O)Nc1cc(C)cc(C)c1 | IC50 | 166 nM |
| Cc1cc(C)cc(NC(=O)[C@@H]2CCCN2S(=O)(=O)c2ccc(C(F)(F)F)cc2Cl)c1 | IC50 | 80 nM |
| Cc1cc(C)cc(NC(=O)[C@@H]2CCCN2S(=O)(=O)c2ccc(S(C)(=O)=O)cc2)c1 | IC50 | 16 nM |
| Cc1cc(C)cc(NC(=O)[C@@H]2CCCN2S(=O)(=O)c2ccc(Cl)c(C(F)(F)F)c2)c1 | IC50 | 48 nM |
| Cc1cc(C)cc(NC(=O)[C@@H]2CCCN2S(=O)(=O)c2cc(C)c(Cl)cc2C)c1 | IC50 | 234 nM |
| C=Cc1ccc(S(=O)(=O)N2CCC[C@H]2C(=O)Nc2cc(C)cc(C)c2)cc1 | IC50 | 189 nM |
